The following molecules are listed with their measured pIC50 values.
# System: MYB
# experiment: Splicing RT-qPCR assay, MYB mRNA canonical junction (CJ) and alternative junction (AJ)
# Type: cell-based, human
# settings: Homo sapiens, 24 h, decrease in CJ mRNA; A673 or K562 cells, 24 hours treatment, RT-qPCR; read-out: MYB CJ IC50
pIC50: −log10 of the molar value.

# molecule, pIC50
data = [
    ("c1n[nH]cc1-c1ccc(-c2ccc(O[C@@H]3C[C@H]4CC[C@@H](C3)N4)nn2)c2[nH]ncc12", "6.00 to 7.00"),
    ("CN(c1ccc(-c2ccc(-c3cn[nH]c3)c3cn[nH]c23)nn1)[C@@H]1C[C@H]2CC[C@@H](C1)N2", "5.00 to 6.00"),
    ("CN1C[C@@H]2[C@H](C1)[C@H]2N(C)c1ccc(-c2ccc(-c3cn[nH]c3)c3ncsc23)nn1", "< 5.00"),
    ("COc1cc(-c2ccc(-c3ccc(N(C)[C@@H]4C[C@H]5CC[C@@H](C4)N5)nn3)c3[nH]ncc23)ccn1", "6.00 to 7.00"),
    ("c1nc2c(-c3cn[nH]c3)ccc(-c3cnc(N4CCC(NC5CC5)C4)nn3)c2s1 (stereo not shown)", "5.00 to 6.00"),
    ("Cc1ncc(-c2ccc(-c3ccc(O[C@@H]4C[C@H]5CC[C@@H](C4)N5)nn3)c3scnc23)s1", "6.00 to 7.00"),
    ("c1nc2c(-c3cn[nH]c3)ccc(-c3ccc(O[C@@H]4C[C@H]5COC[C@@H](C4)N5)nn3)c2s1", "6.00 to 7.00"),
]

###

Parameter: Papp at 2 h, 1 μM. Scope: all listed entries.
# experiment: Transwell assay for membrane efflux and permeability
# Assay type: in vitro ADME, Canine
# settings: dog; MDCK-BCRP or MDCKII-MDR1 transwell, test compound 1 μM, 2 hours at 37° C.
# Description: Compounds described herein were screened for cell membrane permeability and efflux in a transwell assay using Madin-Darby Canine Kidney (MDCK) cells expressing Breast Cancer Resistance Protein (BCRP) or subclone MDCKII cells expressing Multidrug Resistance Protein 1 (MDR1). […]

# molecule, Papp at 2 h, 1 μM
records = [
    ("CCOc1nc(-c2ccc(OC3CC(C)(C)NC(C)(C)C3)nn2)cc(F)c1-c1cn[nH]c1 [Compound 966]", "2 to 6 ×10⁻⁶ cm/s"),
    ("COc1cc(-c2ccc(-c3ccc(N(C)[C@@H]4C[C@H]5CC[C@@H](C4)N5)nn3)c3[nH]ncc23)ccn1 [Compound 385]", "< 2 ×10⁻⁶ cm/s"),
    ("COc1cc(-c2ccc(-c3ccc(O[C@@H]4C[C@H]5CC[C@@H](C4)N5)nn3)c3scnc23)cnn1 [Compound 362]", "2 to 6 ×10⁻⁶ cm/s"),
    ("CN(c1ccc(-c2cc(F)c(-c3cn[nH]c3)c3cn[nH]c23)nn1)[C@@H]1C[C@H]2CC(F)(F)[C@@H](C1)N2 (stereo in doubt) [Compound 378]", "2 to 6 ×10⁻⁶ cm/s"),
    ("CC(C)(C)[C@H]1CN(c2ncc(-c3ccc(-n4cccn4)c4[nH]ncc34)nn2)CCN1 [Compound 581]", "2 to 6 ×10⁻⁶ cm/s"),
    ("Cc1nc(-c2ccc(-c3cnc(N(C)[C@@H]4C[C@H]5CCC[C@@H](C4)N5)nn3)c3scnc23)cs1 [Compound 579]", "< 2 ×10⁻⁶ cm/s"),
    ("CN(c1ccc(-c2ccc(-c3cn[nH]c3)c3ncsc23)nn1)C1CC(C)(C)NC(C)(C)C1 [Compound 132]", "< 2 ×10⁻⁶ cm/s"),
]

Hello, the source for this data is patent US20240368163A1, in case you need it.
